Assay: amyloid nucleation score (Sup35N fusion, yeast selection) (log enrichment); library NNK3; higher = more nucleation; inactive = no reads after selection;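 further: zero at mode of non-aggregating sequences after 7 days selection at 30°C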
amyloid nucleation score listing for selected sequences.
Lab note: jot the number down without any unit.

Answered examples (2):
YTWYCFCRC ... 2.44
DLFCCCYTLS ... 1.03

Proceed to the following item.
Q. Look up amyloid nucleation score: `RNATIALCAGWVIYDSVFKG`
A. 2.27

###

Overview of recorded amyloid nucleation score for various substances
Test: amyloid nucleation score (Sup35N fusion, yeast selection) (log enrichment); library NNK1; higher = more nucleation; inactive = no reads after selection
Could you keep your reply to the number by itself?

Recorded amyloid nucleation score, per entry:
RSLLHCYHNKWMSVRTAFSP ... 0.642
KGGSFVGLSTVQYLLASYAL ... -0.153
NGTWYILSQASFFYELDAYC ... -0.012
IVSTMCPRTDGVPCDNF ... -0.035
YMIWTIFNMVSIGRPQFLRL ... -0.716
MIWVWNRYIIPYFRFCGATL ... 0.268

Q. Entry `HVNSRRVLSHFVFDCARIGT` : reported amyloid nucleation score = ?
A. 0.592

Q. For the substance shown here, `HVLMLNW` , give the reported amyloid nucleation score.
A. 3.05

Q. Find the recorded amyloid nucleation score belonging to `LINMYSMDMTTDHAPAYKLD` and report it.
A. -0.302
